Reported inhibition values follow for various compounds
Molecular target: Glycogen synthase kinase-3 beta (Homo sapiens);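 also: reported values are mean percent inhibition of GSK3B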
Details: at 1 µM
experimental-endpoint: inhibition (%)

- record-smiles: "OCc1ccc(-c2nc(-c3ccccn3)c(-c3ccc4c(c3)OCO4)[nH]2)cc1"
  study-target: "Glycogen synthase kinase-3 beta (Homo sapiens)"
  endpoint-result: 3.44
- record-smiles: "CC(C)c1ccc2c(c1)NC(=O)/C2=N/Nc1ccc(S(N)(=O)=O)cc1"
  study-target: "Glycogen synthase kinase-3 beta (Homo sapiens)"
  endpoint-result: 16.8
- record-smiles: "CN(C)C(=O)O[C@H]1CN[C@H](C#Cc2cc3ncnc(Nc4ccc(OCc5cccc(F)c5)c(Cl)c4)c3s2)C1"
  study-target: "Glycogen synthase kinase-3 beta (Homo sapiens)"
  endpoint-result: 4.1
- record-smiles: "[O-][S+]1CCN(Cc2ccc(-c3ccc4ncnc(Nc5ccc(OCc6ccccc6)c(Cl)c5)c4c3)o2)CC1"
  study-target: "Glycogen synthase kinase-3 beta (Homo sapiens)"
  endpoint-result: 1.33
- record-smiles: "CCS(=O)(=O)c1ccc(OC)c(Nc2ncc(-c3cccc(OC)c3)o2)c1"
  study-target: "Glycogen synthase kinase-3 beta (Homo sapiens)"
  endpoint-result: 11.2
- record-smiles: "Cc1ccc(C(=O)NC2CC2)cc1-c1ccc2[nH]ncc2c1"
  study-target: "Glycogen synthase kinase-3 beta (Homo sapiens)"
  endpoint-result: 1.14
- record-smiles: "N#Cc1cccc(Nc2nccc(-c3cnn4ncccc34)n2)c1"
  study-target: "Glycogen synthase kinase-3 beta (Homo sapiens)"
  endpoint-result: 88.1
- record-smiles: "Cc1ccc2c(c1)/C(=N/Nc1ccc(S(N)(=O)=O)cc1)C(=O)N2"
  study-target: "Glycogen synthase kinase-3 beta (Homo sapiens)"
  endpoint-result: 23.7
- record-smiles: "C[C@@H](Oc1cc(-n2cnc3ccc(OCC4CCN(C)CC4)cc32)sc1C(N)=O)c1ccccc1C(F)(F)F"
  study-target: "Glycogen synthase kinase-3 beta (Homo sapiens)"
  endpoint-result: 2.74
- record-smiles: "NC(=O)c1sc(-n2cnc3ccccc32)cc1OCc1ccccc1Br"
  study-target: "Glycogen synthase kinase-3 beta (Homo sapiens)"
  endpoint-result: 11.8
- record-smiles: "CN(C)c1cc2c(Nc3ccc4c(cnn4Cc4ccccc4)c3)ncnc2cn1"
  study-target: "Glycogen synthase kinase-3 beta (Homo sapiens)"
  endpoint-result: 4.25
- record-smiles: "O=C1Nc2ccccc2/C1=C/Nc1ccc2[nH]c(=O)[nH]c2c1"
  study-target: "Glycogen synthase kinase-3 beta (Homo sapiens)"
  endpoint-result: 12
- record-smiles: "Cc1ccc(Nc2ccnc(Nc3cccc(C(N)=O)c3)n2)cc1O"
  study-target: "Glycogen synthase kinase-3 beta (Homo sapiens)"
  endpoint-result: 17.4
- record-smiles: "COc1ccc(-c2nn3ncccc3c2-c2ccnc(Nc3cccc(C(F)(F)F)c3)n2)cc1"
  study-target: "Glycogen synthase kinase-3 beta (Homo sapiens)"
  endpoint-result: 3.78
- record-smiles: "CCn1c(-c2nonc2N)nc2c(C#CC(C)(C)O)nc(OCCNC)cc21"
  study-target: "Glycogen synthase kinase-3 beta (Homo sapiens)"
  endpoint-result: 46.8
- record-smiles: "NS(=O)(=O)c1ccc(N/N=C2\\C(=O)Nc3ccc(Cl)cc32)cc1"
  study-target: "Glycogen synthase kinase-3 beta (Homo sapiens)"
  endpoint-result: 54.1
- record-smiles: "CN(C)CCCn1c(-c2nonc2N)nc2cnccc21"
  study-target: "Glycogen synthase kinase-3 beta (Homo sapiens)"
  endpoint-result: 12.3
- record-smiles: "COC(=O)c1cncc(/C=C/c2c(C)cc(O)cc2C)c1"
  study-target: "Glycogen synthase kinase-3 beta (Homo sapiens)"
  endpoint-result: 12.9
- record-smiles: "NS(=O)(=O)c1cccc(-c2cc3ccncc3cc2OCc2ccccc2)c1"
  study-target: "Glycogen synthase kinase-3 beta (Homo sapiens)"
  endpoint-result: 3.55
- record-smiles: "NS(=O)(=O)c1ccc(NC=C2C(=O)Nc3ccc4ncsc4c32)cc1"
  study-target: "Glycogen synthase kinase-3 beta (Homo sapiens)"
  endpoint-result: 71.8
- record-smiles: "NS(=O)(=O)c1ccc(-c2cc3ccncc3cc2OCc2ccccc2)cc1"
  study-target: "Glycogen synthase kinase-3 beta (Homo sapiens)"
  endpoint-result: 3.98
